- system name: SAP (Homo sapiens, UniProt P02743)
- Sequence (P02743 20-223): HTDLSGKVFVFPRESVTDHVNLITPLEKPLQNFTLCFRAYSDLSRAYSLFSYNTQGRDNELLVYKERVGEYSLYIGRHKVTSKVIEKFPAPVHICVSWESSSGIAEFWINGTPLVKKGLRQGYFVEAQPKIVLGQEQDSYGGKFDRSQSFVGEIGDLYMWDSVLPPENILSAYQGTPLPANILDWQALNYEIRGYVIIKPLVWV
- measurement notes: Inhibition of binding of 125I radiolabelled SAP to influenza virus immobilized in microtitre plates
- Design: 5 μl of radiolabelled SAP in TN; from tissue
- condition info: compound 20 μM; read-out: Percent inhibition of binding of radiolabelled SAP to immobilized influenza virus
Binning scheme for inhibition at 20 µM: one (below 60%), two (60% to below 80%), three (80% or more)

compound: C[C@H](CS)C(=O)N1CCC[C@@H]1C(=O)O
answer label: one

compound: O=C(O)[C@H]1CCCN1C(=O)Cc1ccc(CC(=O)N2CCC[C@@H]2C(=O)O)c2ccccc12
answer label: three

compound: O=C(O)[C@H]1CCCN1C(=O)COc1cccc2c(OCC(=O)N3CCC[C@@H]3C(=O)O)cccc12
answer label: two

compound: O=C(O)[C@H]1CCCN1C(=O)Cc1cccc(CC(=O)N2CCC[C@@H]2C(=O)O)c1
answer label: two

compound: C[N+](C)(C)CCOP(=O)([O-])O [Phosphocholine, reference compound]
answer label: one

compound: COc1cccc(OCC(=O)N2CCC[C@@H]2C(=O)O)c1OCC(=O)N1CCC[C@@H]1C(=O)O
answer label: two

compound: O=C(O)[C@H]1CCCN1C(=O)CCCCC(=O)N1CCC[C@@H]1C(=O)O
answer label: three

compound: NCCOP(=O)(O)O [Phosphoethanolamine, reference compound]
answer label: one

compound: O=C(O)[C@H]1CCCN1C(=O)Cc1ccc(CC(=O)N2CCC[C@@H]2C(=O)O)cc1
answer label: three

compound: O=C(O)[C@H]1CCCN1C(=O)[C@H]1CC[C@@H](C(=O)N2CCC[C@@H]2C(=O)O)CC1
answer label: three

compound: C[C@H](CSSC[C@@H](C)C(=O)N1CCC[C@@H]1C(=O)O)C(=O)N1CCC[C@@H]1C(=O)O
answer label: three

compound: O=C(O)[C@H]1CCCN1C(=O)COc1ccccc1OCC(=O)N1CCC[C@@H]1C(=O)O
answer label: three

----------
- system name: SAP (Homo sapiens)
- measurement notes: Inhibition of binding of 125I radiolabelled SAP to influenza virus immobilized in microtitre plates
- Design: 5 μl of radiolabelled SAP in TN; from tissue
- condition info: compound 2 mM; read-out: Percent inhibition of binding of radiolabelled SAP to immobilized influenza virus
// reported inhibition at 2000 µM for each item listed

molecule: C[C@H](CSSC[C@@H](C)C(=O)N1CCC[C@@H]1C(=O)O)C(=O)N1CCC[C@@H]1C(=O)O
system name: SAP (Homo sapiens)
inhibition at 2000 µM [%]: 91
--
molecule: O=C(O)[C@H]1CCCN1C(=O)COc1ccc(OCC(=O)N2CCC[C@@H]2C(=O)O)cc1
system name: SAP (Homo sapiens)
inhibition at 2000 µM [%]: 87
--
molecule: COc1cccc(OCC(=O)N2CCC[C@@H]2C(=O)O)c1OCC(=O)N1CCC[C@@H]1C(=O)O
system name: SAP (Homo sapiens)
inhibition at 2000 µM [%]: 89
--
molecule: O=C(O)[C@H]1CCCN1C(=O)CCCCC(=O)N1CCC[C@@H]1C(=O)O
system name: SAP (Homo sapiens)
inhibition at 2000 µM [%]: 98
--
molecule: O=C(O)[C@H]1CCCN1C(=O)Cc1ccc(CC(=O)N2CCC[C@@H]2C(=O)O)cc1
system name: SAP (Homo sapiens)
inhibition at 2000 µM [%]: 89
--
molecule: NCCOP(=O)(O)O [Phosphoethanolamine, reference compound]
system name: SAP (Homo sapiens)
inhibition at 2000 µM [%]: 69
--
molecule: O=C(O)[C@H]1CCCN1C(=O)Cc1ccc(CC(=O)N2CCC[C@@H]2C(=O)O)c2ccccc12
system name: SAP (Homo sapiens)
inhibition at 2000 µM [%]: 98
--
molecule: O=C(O)[C@H]1CCCN1C(=O)[C@H]1CC[C@@H](C(=O)N2CCC[C@@H]2C(=O)O)CC1
system name: SAP (Homo sapiens)
inhibition at 2000 µM [%]: 92
--
molecule: O=C(O)[C@H]1CCCN1C(=O)Cc1cccc(CC(=O)N2CCC[C@@H]2C(=O)O)c1
system name: SAP (Homo sapiens)
inhibition at 2000 µM [%]: 82
--
molecule: O=C(O)[C@H]1CCCN1C(=O)Cc1cc(O)c(CC(=O)N2CCC[C@@H]2C(=O)O)cc1O
system name: SAP (Homo sapiens)
inhibition at 2000 µM [%]: 89
--
molecule: O=C(O)[C@H]1CCCN1C(=O)COc1cccc2c(OCC(=O)N3CCC[C@@H]3C(=O)O)cccc12
system name: SAP (Homo sapiens)
inhibition at 2000 µM [%]: 80
--
molecule: O=C(O)[C@H]1CCCN1C(=O)COc1ccccc1OCC(=O)N1CCC[C@@H]1C(=O)O
system name: SAP (Homo sapiens)
inhibition at 2000 µM [%]: 94

----------
- system name: SAP (Homo sapiens, UniProt P02743)
- measurement notes: Inhibition of binding of 125I radiolabelled SAP to native long chromatin immobilized in microtitre plates
- Design: 5 μl of radiolabelled SAP in TN; from tissue
- condition info: compound 2 mM; read-out: Percent inhibition of binding of radiolabelled SAP to immobilized native long chromatin
// reported inhibition at 2000 µM for each item listed

compound: O=C(O)[C@H]1CCCN1C(=O)CCCCC(=O)N1CCC[C@@H]1C(=O)O
inhibition at 2000 µM, %: 93
--
compound: NCCOP(=O)(O)O [Phosphoethanolamine, reference compound]
inhibition at 2000 µM, %: 94
--
compound: O=C(O)[C@H]1CCCN1C(=O)COc1ccccc1OCC(=O)N1CCC[C@@H]1C(=O)O
inhibition at 2000 µM, %: 96
--
compound: COc1cccc(OCC(=O)N2CCC[C@@H]2C(=O)O)c1OCC(=O)N1CCC[C@@H]1C(=O)O
inhibition at 2000 µM, %: 100
--
compound: O=C(O)[C@H]1CCCN1C(=O)Cc1cc(O)c(CC(=O)N2CCC[C@@H]2C(=O)O)cc1O
inhibition at 2000 µM, %: 97
--
compound: C[C@H](CSSC[C@@H](C)C(=O)N1CCC[C@@H]1C(=O)O)C(=O)N1CCC[C@@H]1C(=O)O
inhibition at 2000 µM, %: 99
--
compound: O=C(O)[C@H]1CCCN1C(=O)[C@H]1CC[C@@H](C(=O)N2CCC[C@@H]2C(=O)O)CC1
inhibition at 2000 µM, %: 100
--
compound: O=C(O)[C@H]1CCCN1C(=O)COc1ccc(OCC(=O)N2CCC[C@@H]2C(=O)O)cc1
inhibition at 2000 µM, %: 91
--
compound: O=C(O)[C@H]1CCCN1C(=O)Cc1ccc(CC(=O)N2CCC[C@@H]2C(=O)O)c2ccccc12
inhibition at 2000 µM, %: 100
--
compound: O=C(O)[C@H]1CCCN1C(=O)Cc1cccc(CC(=O)N2CCC[C@@H]2C(=O)O)c1
inhibition at 2000 µM, %: 98
--
compound: O=C(O)[C@H]1CCCN1C(=O)Cc1ccc(CC(=O)N2CCC[C@@H]2C(=O)O)cc1
inhibition at 2000 µM, %: 92
--
compound: O=C(O)[C@H]1CCCN1C(=O)COc1cccc2c(OCC(=O)N3CCC[C@@H]3C(=O)O)cccc12
inhibition at 2000 µM, %: 96

----------
- system name: SAP (Homo sapiens, UniProt P02743)
- measurement notes: Inhibition of binding of 125I radiolabelled SAP to influenza virus immobilized in microtitre plates
- Set-up: 5 μl of radiolabelled SAP in TN; from tissue
- condition info: compound 2 μM; read-out: Percent inhibition of binding of radiolabelled SAP to immobilized influenza virus

substance smiles: O=C(O)[C@H]1CCCN1C(=O)Cc1cc(O)c(CC(=O)N2CCC[C@@H]2C(=O)O)cc1O
inhibition at 2 µM: 57%

substance smiles: O=C(O)[C@H]1CCCN1C(=O)COc1ccc(OCC(=O)N2CCC[C@@H]2C(=O)O)cc1
inhibition at 2 µM: 77%

substance smiles: O=C(O)[C@H]1CCCN1C(=O)CCCCC(=O)N1CCC[C@@H]1C(=O)O
inhibition at 2 µM: 81%

substance smiles: C[C@H](CSSC[C@@H](C)C(=O)N1CCC[C@@H]1C(=O)O)C(=O)N1CCC[C@@H]1C(=O)O
inhibition at 2 µM: 78%

----------
- system name: SAP (Homo sapiens, UniProt P02743)
- measurement notes: Inhibition of binding of 125I radiolabelled SAP to influenza virus immobilized in microtitre plates
- Set-up: 5 μl of radiolabelled SAP in TN; from tissue
- condition info: compound 200 μM; read-out: Percent inhibition of binding of radiolabelled SAP to immobilized influenza virus

molecule: O=C(O)[C@H]1CCCN1C(=O)COc1ccccc1OCC(=O)N1CCC[C@@H]1C(=O)O
unit string: %
inhibition at 200 µM: 93
--
molecule: C[N+](C)(C)CCOP(=O)([O-])O [Phosphocholine, reference compound]
unit string: %
inhibition at 200 µM: 5
--
molecule: O=C(O)[C@H]1CCCN1C(=O)[C@H]1CC[C@@H](C(=O)N2CCC[C@@H]2C(=O)O)CC1
unit string: %
inhibition at 200 µM: 89
--
molecule: C[C@H](CS)C(=O)N1CCC[C@@H]1C(=O)O
unit string: %
inhibition at 200 µM: 51
--
molecule: O=C(O)[C@H]1CCCN1C(=O)COc1cccc2c(OCC(=O)N3CCC[C@@H]3C(=O)O)cccc12
unit string: %
inhibition at 200 µM: 76
--
molecule: NCCOP(=O)(O)O [Phosphoethanolamine, reference compound]
unit string: %
inhibition at 200 µM: 51
--
molecule: O=C(O)[C@H]1CCCN1C(=O)Cc1ccc(CC(=O)N2CCC[C@@H]2C(=O)O)c2ccccc12
unit string: %
inhibition at 200 µM: 94
--
molecule: O=C(O)[C@H]1CCCN1C(=O)Cc1cc(O)c(CC(=O)N2CCC[C@@H]2C(=O)O)cc1O
unit string: %
inhibition at 200 µM: 89
